- TARGET OR TEST SYSTEM: PPM1DΔflap (Homo sapiens, UniProt O15297, DEL219-231/DEL235-284/E287S/S285N)
- Construct: PPM1D1–218-GGSNGS-288–420 (PPM1D∆flap); His(6)-SUMO (N, cleaved yes); made in house; host or cells: E. coli BL21 (DE3)
- Sequence (O15297 with tags, fused parts or gaps DEL219-231/DEL235-284/S285N/E287S): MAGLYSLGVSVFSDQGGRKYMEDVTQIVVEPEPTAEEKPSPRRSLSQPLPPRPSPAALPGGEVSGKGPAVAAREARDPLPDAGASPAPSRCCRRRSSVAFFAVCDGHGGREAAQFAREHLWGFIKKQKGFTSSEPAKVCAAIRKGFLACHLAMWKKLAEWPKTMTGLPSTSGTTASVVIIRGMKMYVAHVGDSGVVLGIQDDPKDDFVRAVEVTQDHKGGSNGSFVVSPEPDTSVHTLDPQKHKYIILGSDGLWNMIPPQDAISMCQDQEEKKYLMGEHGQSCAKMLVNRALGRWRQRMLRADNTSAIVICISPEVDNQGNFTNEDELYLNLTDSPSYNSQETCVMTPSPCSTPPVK
- PROCEDURE TEXT: Isothermal titration calorimetry (ITC)
- Format: binding
- CONDITIONS: ITC, average of 2 trials; Sup Fig 5A; read-out: Kd Average
OBSERVABLE: Kd (nM)
Numbers only, in nM.

Asked: Read off the recorded Kd for `Cc1ncc(Cl)cc1NCc1ccc(C(=O)N[C@@H](CC2CCCC2)C(=O)NC2CC2)s1`
Given back: 11.9
